# targetOrSystem: Drosophila OR49b (Drosophila melanogaster, UniProt Q9V6H2)
# Construct: expressed in transfected cells
# experimentDescription: cell-based
# experimentalSetup: OR49b cell line; odorant cc. 10 µM; mean of biological replicates
Recorded measurements of Average response, one per entry
Just the number, please.

Cc1ccc(O)cc1 [4-methylphenol] | 0.11

Form field Average response for item Cc1ccc(C)cc1 [p-xylene] on Drosophila OR49b (Drosophila melanogaster, UniProt Q9V6H2): 0.033

Form field Average response for item COc1cccc(OC)c1 [1,3-dimethoxy benzene] on Drosophila OR49b (Drosophila melanogaster, UniProt Q9V6H2): 0.00

Form field Average response for item C=C1[C@H]2CC[C@@H]3[C@H]2C(C)(C)CCC[C@]13C [(+)-longifolene] on Drosophila OR49b (Drosophila melanogaster, UniProt Q9V6H2): 0.00

Form field Average response for item C=CCc1ccc(O)c(OC)c1 [eugenol] on Drosophila OR49b (Drosophila melanogaster, UniProt Q9V6H2): 0.00

---

# targetOrSystem: Drosophila OR10a (Drosophila melanogaster)
# Construct: expressed in transfected cells
# Sequence (Q9VYZ1 whole entry, one chain of several): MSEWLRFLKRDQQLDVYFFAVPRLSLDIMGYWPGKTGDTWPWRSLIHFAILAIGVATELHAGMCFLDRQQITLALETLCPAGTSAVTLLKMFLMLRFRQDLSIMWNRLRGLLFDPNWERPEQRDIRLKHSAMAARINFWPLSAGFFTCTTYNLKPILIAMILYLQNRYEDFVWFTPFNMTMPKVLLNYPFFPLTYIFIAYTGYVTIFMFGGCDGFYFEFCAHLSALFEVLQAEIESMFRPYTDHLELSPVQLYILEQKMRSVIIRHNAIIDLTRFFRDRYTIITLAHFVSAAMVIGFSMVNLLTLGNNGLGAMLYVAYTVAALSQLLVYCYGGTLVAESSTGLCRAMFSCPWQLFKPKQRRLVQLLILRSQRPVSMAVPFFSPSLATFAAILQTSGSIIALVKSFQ
# experimentDescription: Calcium ion fluorescence (GCaMP6) assay, OR10a stable HEK293 cell line
# Type: cell-based
# experimentalSetup: 1 μM VOC; 50 μM VUAA1 = 1; responses not exceeding 0.05 considered 0
measurementLabel: OR10a Average response (VUAA1-normalized)
Just the number, please.

Known OR10a Average response (VUAA1-normalized) results, listed for orientation:
C=C(C)[C@H]1CC=C(C)CC1 [limonene] | 0.00
CC(C)=CCC/C(C)=C/CC/C(C)=C/CO | 0.034
C=C1[C@H]2CC[C@@H]3[C@H]2C(C)(C)CCC[C@]13C [(+)-longifolene] | 0.08
CC/C=C/CCO | 0.0153
CC/C=C\CCO | 0.17

The measured OR10a Average response (VUAA1-normalized) associated with C=C(C)C1CCC2(C)OC2C1 (single isomer, unassigned; (+)) [(+)-limonene oxide] reads 0.00

The measured OR10a Average response (VUAA1-normalized) associated with C=C(C)[C@H]1CC=C(C)CC1 [(R)-(+)-limonene] reads 0.00

The measured OR10a Average response (VUAA1-normalized) associated with CC1=CCC[C@@]2(C)[C@@H]3CC[C@]12CC3(C)C [(−)-α-neoclovene] reads 0.00

---

Recorded measurements of Average response, one per entry
# targetOrSystem: Drosophila OR49b (Drosophila melanogaster)
# Construct: expressed in transfected cells
# Sequence (Q9V6H2 1-375): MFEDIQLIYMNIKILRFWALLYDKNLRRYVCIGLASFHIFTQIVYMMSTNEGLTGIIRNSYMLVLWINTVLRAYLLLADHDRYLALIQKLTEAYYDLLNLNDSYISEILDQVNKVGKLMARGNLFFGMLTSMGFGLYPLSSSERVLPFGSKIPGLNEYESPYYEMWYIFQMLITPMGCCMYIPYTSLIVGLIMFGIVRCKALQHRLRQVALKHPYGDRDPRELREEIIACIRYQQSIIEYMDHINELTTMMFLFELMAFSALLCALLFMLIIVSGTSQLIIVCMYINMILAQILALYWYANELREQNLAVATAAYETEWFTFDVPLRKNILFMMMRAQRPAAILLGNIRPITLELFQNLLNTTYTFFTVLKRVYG
# Sequence (Q9VNB5 1-486 partner): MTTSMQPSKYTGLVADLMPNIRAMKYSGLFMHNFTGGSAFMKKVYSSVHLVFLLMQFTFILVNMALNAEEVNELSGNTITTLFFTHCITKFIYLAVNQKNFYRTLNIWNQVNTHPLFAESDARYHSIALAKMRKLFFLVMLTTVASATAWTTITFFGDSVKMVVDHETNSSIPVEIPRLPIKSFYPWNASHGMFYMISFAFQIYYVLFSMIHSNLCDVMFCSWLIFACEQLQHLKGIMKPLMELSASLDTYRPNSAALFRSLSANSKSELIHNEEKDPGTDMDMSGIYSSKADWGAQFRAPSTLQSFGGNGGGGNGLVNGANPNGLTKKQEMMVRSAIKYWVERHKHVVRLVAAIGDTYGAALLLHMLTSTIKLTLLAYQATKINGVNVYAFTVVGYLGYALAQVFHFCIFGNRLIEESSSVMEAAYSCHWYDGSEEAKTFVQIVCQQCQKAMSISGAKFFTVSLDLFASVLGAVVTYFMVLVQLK
# experimentDescription: cell-based
# experimentalSetup: OR49b cell line; odorant cc. 1 µM; mean of biological replicates
# Protocol: These VUAA1 normalized ∆F values were used to compare the different receptors and ligands. The concentration-dependent effect of the reference ligands on their cognate cell lines was examined in more detail. Twelve different ligand concentrations were measured on each cell line in an overall 0.01 μM to 100 μM concentration range with 5 repetitions with three technical replicates each time. […]
Just the number, please.

Known Average response results, listed for orientation:
Cc1ccc(O)cc1 [4-methylphenol] | 0.0329
CCOC(=O)CC [ethyl propionate] | 0.00
C=C1CC/C=C(\C)CC[C@@H]2[C@@H]1CC2(C)C [(-)-trans-caryophyllene] | 0.00
CC1=CCC23CC1C(C)(C)C2CCC3C (stereo not drawn) [α-funebrene] | 0.00

Form field Average response for item CC1=CCC2C(C1)C2(C)C (stereo not drawn) [3-carene] on Drosophila OR49b (Drosophila melanogaster): 0.00

Form field Average response for item Cc1cccc(O)c1 [3-methylphenol] on Drosophila OR49b (Drosophila melanogaster): 0.00

Form field Average response for item OCCc1ccccc1 [phenethyl alcohol] on Drosophila OR49b (Drosophila melanogaster): 0.0257

Form field Average response for item C=C(C)[C@H]1CC=C(C)CC1 [limonene] on Drosophila OR49b (Drosophila melanogaster): 0.00

Form field Average response for item C=C1CCC2CC1C2(C)C (stereo not drawn) [beta-pinene] on Drosophila OR49b (Drosophila melanogaster): 0.0658

Form field Average response for item CCCCCC(=O)OCC [ethyl hexanoate] on Drosophila OR49b (Drosophila melanogaster): 0.00

Form field Average response for item CCCCCC(C)=O [2-heptanone] on Drosophila OR49b (Drosophila melanogaster): 0.00

Form field Average response for item COC(=O)c1ccccc1O [methyl salicylate] on Drosophila OR49b (Drosophila melanogaster): 0.0269
